# Test system: Acodontaster conspicuus
# Measurement description: Antimicrobial activity against Acodontaster conspicuus McM13.3 at 20 degC after 48 hrs by paper disk method
# Type: functional, organism-based
Activity calls are given as the source filed them. The rule behind the calls is not given here.

Compound | Activity
CC(/C=C/[C@@H](C)[C@H]1C[C@@H](O)C2=C3C[C@H](O)C4C[C@@H](O)CC[C@]4(C)[C@H]3CC[C@@]21C)CO (stereo partly specified) | Active
C[C@H](/C=C/[C@@H](C)[C@H]1C[C@@H](O)C2=C3C[C@H](O)C4C[C@@H](O)CC[C@]4(C)[C@H]3CC[C@@]21C)[C@H](C)CO (stereo partly specified) | Active
CO[C@H]1[C@H](O[C@H]2[C@H](OC[C@@H](C)[C@H](C)/C=C/[C@@H](C)[C@H]3C[C@@H](O)[C@@H]4[C@]3(C)CC[C@@H]3[C@@]5(C)CC[C@H](O)[C@H](O)[C@@H]5[C@@H](O)C[C@]34O)OC[C@@H](O)[C@@H]2O)OC[C@@H](O)[C@@H]1O | Active
CC(C)C[C@@H]1O[C@H]1[C@@](C)(O)[C@H]1CC[C@H]2[C@@H]3C[C@H](O[C@@H]4O[C@H](C)[C@@H](O)[C@H](O[C@@H]5OC[C@@H](O[C@@H]6O[C@H](CO)[C@H](O)[C@H](O)[C@H]6O[C@@H]6O[C@H](C)[C@@H](O)[C@H](O)[C@H]6O)[C@H](O)[C@H]5O[C@H]5O[C@@H](C)[C@H](O)[C@@H](O)[C@@H]5O)[C@H]4O)[C@H]4C[C@@H](OS(=O)(=O)O)CC[C@]4(C)C3=CC[C@]12C | inactive
CC(C)CC(=O)C[C@@](C)(O)[C@H]1CC[C@H]2[C@@H]3C[C@H](O[C@@H]4O[C@H](C)[C@@H](O)[C@H](O[C@@H]5OC[C@@H](O[C@@H]6O[C@H](CO)[C@H](O)[C@H](O)[C@H]6O[C@@H]6O[C@H](C)[C@@H](O)[C@H](O)[C@H]6O)[C@H](O)[C@H]5O[C@H]5O[C@@H](C)[C@H](O)[C@@H](O)[C@@H]5O)[C@H]4O)[C@H]4C[C@@H](OS(=O)(=O)O)CC[C@]4(C)C3=CC[C@@]21C | inactive
CC(C)[C@@H](C)C(=O)C[C@@](C)(O)[C@H]1CC[C@H]2[C@@H]3C[C@H](O[C@@H]4O[C@H](C)[C@@H](O)[C@H](O[C@@H]5OC[C@@H](O[C@@H]6O[C@H](CO)[C@H](O)[C@H](O)[C@H]6O[C@@H]6O[C@H](C)[C@@H](O)[C@H](O)[C@H]6O)[C@H](O)[C@H]5O[C@H]5O[C@@H](C)[C@H](O)[C@@H](O)[C@@H]5O)[C@H]4O)[C@H]4C[C@@H](OS(=O)(=O)O)CC[C@]4(C)C3=CC[C@@]21C | inactive
